The measured values listed here are drawn from patent US20090291081A1.

- SYSTEM_NAME: T1, human IL-1α (human, UniProt P01583 113-271)
- T1 sequence (looked up): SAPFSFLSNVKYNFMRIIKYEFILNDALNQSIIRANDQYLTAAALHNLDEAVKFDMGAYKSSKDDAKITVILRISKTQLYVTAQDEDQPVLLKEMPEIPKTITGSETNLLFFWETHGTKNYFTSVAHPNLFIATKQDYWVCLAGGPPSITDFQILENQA
- PROTOCOL_DESCRIPTION: cell-based or functional assay
As shown below, each of these binders has a reported ND50 value.
Note: unit nM is implicit; provide only the numeric part.

Sample answers from the record:
Value lookup for ND50; key = ABT1-95-3 (other, VK dAb) VL: DIQMTQSPSSLSASVGDRVTITCRASQPIHGNLRWYQQKPGKAPKLLIYSSSYLQSGVPSRFSGSGSGTDFTLTISSLQPEDFATYHCQQGYRWPVTFGQGTKVEIKR
80

Field entry: ABT1-141-33 (other) VL: DIQMTQSPSSLSASVGDRVTITCRASQWIQKQLAWYQLKPGKAPKLLIYSSSWLQSGVPSRFSGSGSGTDFTLTISSLQPEDFATYYCQQHLRVPMTFGQGTKVEIKR
3

// repeat for ABT1-95-178 (other) VL: DIQMTQSPSSLSASVGDRVTITCRASQPIVRNLRWYQQKPGKAPKLLIYSVSYLEPGVPSRFSGSGSGTDFTLTISSLQPEDFATYHCRQGYRWPVTFGQGTKVEIKR and report
0.004

Then what about the binder ABT1-95-8 (other, VK dAb) VL: DIQMTQSPSSLSASVGDRVTITCRASQPIQGNLRWYQQKPGKAPKLLIYSSSYLERGVPSRFSGSGSGTDFTLTISSLQPEDFATYHCQQGYRWPVTFGQGTKVEIKR ?
1

Please answer likewise for ABT1-141-48 (other, VK dAb) VL: DIQMTQSPSSLSASVGDRVTITCRASQWIQKQLAWYQQKPGKAPKLLIFSSSHLQSGVPSRFSGSGSGTDFTLTISSLQPEDFASYYCQQHLRVPMTFGQGTKVEIKR
1

Continuing:
Param item = ABT1-95-6 (other, VK dAb) VL: DIQMTQSPSSLSASVGDRVTITCRASQPIQGNLRWYQQKPGKAPKLLIYSSSYLESGVPSRFSGSGSGTDFTLTISSLQPEDFATYHCQQGYRWPVTFGQGTKVEIKR ; retrieve measured ND50.
1

Please answer likewise for ABT1-95-A6 (other) VL: DIQMTQSPSSLSASVGDRVTITCRASKPGVRNMRWYQQKPGKAPKLLIYAKSYLEPGVPSRFSGSGSGTDFTLTISSLQPEDFATYHCKQGYRWPVQFGQGTKVEIKR
0.024

Next binder: ABT1-86 (other, VH dAb) VH: EVQLLESGGGLVQPGGSLRLSCAASGFTFDRYIMAWVRQAPGKGLEWVSSITPSGAATYYADSVKGRFTISRDNSKNTLYLQMNSLRAEDTAVYYCAEEPADRYSTWTFDYWGQGTLVTVSS
900

Also check ABT1-95-149 (other, VK dAb) VL: DIQMTQSPSSLSASVGDRVTITCRASQAIVRNLRWYQQKPGKAPKLLIYSSSYLEPGVPSRFSGSGSGTDFTLTISSLQPEDFATYHCQQGYRWPVTFGQGTKVEIKR
0.064

Ok, now ABT1-6-15 (other, VH dAb) VH: EVQLLESGGGLVQPGGSLRLSCAASGFTFVRYDMAWVRQAPGKGLEWVSSINKSGALTSYADSVKGRFTISRDNSKNTLYLQMNSLRAEDTAVYYCAKGWASFDYWGQGTLVTVSS
500

Consider next the binder ABT1-95-24 (other, VK dAb) VL: DIQMTQSPSSLSASVGDRVTITCRASQPIVRNLRWYQQKPGKAPKLLIYSSSYLEPGVPSRFSGSGSGTDFTLTISSLQPEDFATYYCCQGYRWPVTFGQGTKVEIKR in the same way.
0.27

For ABT1-95-25 (other, VK dAb) VL: DIQMTQSPSSLSASVGDRVTITCRASQPIVRNLRWYQQKPGKAPKLLIYSSSYLEPGVPSRFSGSGSGTDFTLTISSLQPEDFATYYCDQGYRWPVTFGQGTKVEIKR then?
0.43

Okay, and ABT1-95-47 (other, VK dAb) VL: DIQMTQSPSSLSASVGDRVTITCRASMPIVRNLRWYQQKPGKAPKLLIYSSSYLEPGVPSRFSGSGSGTDFTLTISSLQPEDFATYHCQQGYRWPVTFGQGTKVEIKR ?
0.139

Same lookup for ABT1-95-102 (other, VK dAb) VL: DIQMTQSPSSLSASVGDRVTITCRASQPIVRNLRWYQQKPGKAPKLLIYSSSYLQPGVPSRFSGSGSGTDFTLTISSLQPEDFATYHCQQGYRWPVTFGQGTKVEIKR , please.
0.184
